# Cyclophilin affinity 1.0 ug/ml values compiled below
TEST TARGET: cyclophilin (Bos taurus)
Construct: from tissue; host or cells: purified from tissue cytosol
Sequence (P62935 whole entry): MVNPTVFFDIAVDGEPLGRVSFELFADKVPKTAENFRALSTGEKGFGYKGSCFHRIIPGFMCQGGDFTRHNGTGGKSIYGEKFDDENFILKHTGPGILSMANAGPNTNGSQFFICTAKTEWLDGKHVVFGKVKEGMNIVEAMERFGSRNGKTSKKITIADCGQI
METHOD: Cyclophilin affinity: enhancement of the intrinsic tryptophan fluorescence of cyclophilin by CsA or analogs
Format: binding
STATED CONDITIONS: ligand 1.0 ug/ml, 5 ug/ml cyclophilin, pH 7.2
Where a SMILES comes first, the peptide text is derived from it. [ ]: non-standard residue; d: D form. NMe(dihydroBmt) = CCCC[C@@H](C)[C@@H](O)[C@H](NC)C(=O)O; NMeL = CN[C@@H](CC(C)C)C(=O)O; NMeV = CN[C@H](C(=O)O)C(C)C; Sar = CNCC(=O)O
EXPERIMENTAL READOUT: Cyclophilin affinity 1.0 ug/ml

• C/C=C/C[C@@H](C)[C@@H](O)[C@H]1C(=O)N[C@@H]([C@@H](C)O)C(=O)N(C)CC(=O)N(C)[C@@H](CC(C)C)C(=O)N[C@@H](C(C)C)C(=O)N(C)[C@@H](CC(C)C)C(=O)N[C@@H](C)C(=O)N[C@H](C)C(=O)N(C)[C@@H](CC(C)C)C(=O)N(C)[C@@H](CC(C)C)C(=O)N(C)[C@@H](C(C)C)C(=O)N1C = 0.69
• C/C=C/C[C@@H](C)[C@@H](OC(C)=O)[C@H]1C(=O)N[C@@H](CC)C(=O)N(C)CC(=O)N(C)[C@@H](CC(C)C)C(=O)N[C@@H](C(C)C)C(=O)N(C)[C@@H](CC(C)C)C(=O)N[C@@H](C)C(=O)N[C@H](C)C(=O)N(C)[C@@H](CC(C)C)C(=O)N(C)[C@@H](CC(C)C)C(=O)N(C)[C@@H](C(C)C)C(=O)N1C = -0.03
• CCCC[C@@H](C)[C@@H](O)[C@H]1C(=O)N[C@@H](C(C)C)C(=O)N(C)CC(=O)N(C)[C@@H](CC(C)C)C(=O)N[C@@H](C(C)C)C(=O)N(C)[C@@H](CC(C)C)C(=O)N[C@@H](C)C(=O)N[C@H](C)C(=O)N(C)[C@@H](CC(C)C)C(=O)N(C)[C@@H](CC(C)C)C(=O)N(C)[C@@H](C(C)C)C(=O)N1C [Dihydro-CsD] (cyclo(A[dA][NMeL][NMeL][NMeV][NMe(dihydroBmt)]V[Sar][NMeL]V[NMeL])) = 0.72
